Assay: Inhibitory activity against LT biosynthesis; […]
Type: functional
measured-quantity: pIC50
Keep it numeric: pIC50 is minus log10 of the concentration in mol/L.

Give its pIC50 value. Item: CC(C)c1ccc2c(c1)c(SC(C)(C)C)c(CC(C)(C)C(=O)O)n2Cc1ccc(Cl)cc1
8.30

====

Organism: Homo sapiens
Assay: Compound was tested in vitro inhibitory activity against […] induced chemotaxis
Type: functional, organism-based
measured-quantity: IC50
Give the value; after it, write the unit.

What value of measured IC50 is listed for COc1cc(C(=O)N(C(C)C)C(C)C)ccc1OCCCCCOc1ccc(C(=N)N)cc1 ?
2.4 nM

====

Assay: phase 1 oral half life at a dose 400 mg.
Type: ADME, organism-based
Conditions: human, in vivo
measured-quantity: half-life (h)
Response body: numeric value in h, unit text excluded.

Need half-life, item CC(=O)N(O)C/C=C/c1cccc(Oc2ccccc2)c1
2

====

Species on record: Homo sapiens
Assay: Compound was tested in vitro for inhibitory activity in LTB4 induced neutrophil degranulation.
Type: functional, organism-based
measured-quantity: pIC50
Expect pIC50 as a plain number equal to -log10 of the molar concentration.

May I ask what pIC50 has been recorded for CCCc1c(OCCCOc2ccc(C(=O)NC)c(OC)c2CC2CC2)ccc2c1OC(CCC(=O)O)CC2 (stereo unspecified) ?
7.54

====

Species: Homo sapiens
Assay: Compound was tested in vitro inhibitory activity against […] induced aggregation.
Format: functional, organism-based
measured-quantity: IC50 (nM)
The answer is to be given in nM; state only the numeric part.

Recorded IC50 for COc1cc(C(=O)N(C(C)C)C(C)C)ccc1OCCCCCOc1ccc(C(=N)N)cc1 , please?
0.1

====

Organism: Homo sapiens
Test: Compound was tested in vitro inhibitory activity against LTB4 induced neutrophil degranulation
Type: functional
measured-quantity: IC50 (µM)
The figure you give is taken to be in µM; do not add the unit.

Entry O=C(O)/C=C/c1nc(CSc2c(Cl)cccc2Cl)ccc1OCCc1ccccc1 has what IC50?
0.117

====

Species: Homo sapiens
Experiment: Compound was tested in vitro inhibitory activity against 12-R-HETE induced Ca mobilization
Format: functional
measured-quantity: IC50 (nM)
Kindly provide the numeric value in nM only, without the unit symbol.

Quick one: IC50 of O=C(O)/C=C/c1nc(CSc2c(Cl)cccc2Cl)ccc1OCCc1ccccc1 ?
1.3

====

Species on record: Homo sapiens
Assay: Compound was tested in vitro inhibitory activity against […] induced Ca mobilization.
Format: functional, organism-based
measured-quantity: IC50
I'd appreciate it if you included the unit after the number.

substance-smiles | IC50
COc1cc(C(=O)N(C(C)C)C(C)C)ccc1OCCCCCOc1ccc(C(=N)N)cc1 | 2 nM

Can you look up the measured IC50 of O=C(O)C1(c2ccc3c(c2)OC[C@H](Cc2ccc(-c4ccccc4)cc2)[C@H]3O)CCCC1 for me?
940 nM

====

Species: Cavia porcellus
Experiment: Compound was tested in vitro for inhibitory activity against guinea pig neutrophil aggregation
Format: functional
measured-quantity: IC50 (µM)
Could you give me the number in µM? Just the number is fine.

Entry COc1ccc(/C=C/CCCCOc2ccc(C(=O)c3cccc(C(=O)O)c3)cc2CCC(=O)O)cc1 has what IC50?
0.074

====

Organism: Homo sapiens
Test: Compound were tested for in vitro inhibition against human whole blood.
measured-quantity: IC50 (nM)
Write the value in nM as a bare number.

Dear colleague, I am looking for the recorded IC50 of the following molecule: CC(C)(C)Sc1c(CC(C)(C)C(=O)[O-])n(Cc2ccc(Cl)cc2)c2ccc(OCc3ccc4ccccc4n3)cc12.[Na+] [QUIFLAPON SODIUM]
510
